# Test system: Pseudomonas aeruginosa
# PROTOCOL TEXT: Antibacterial activity against TriABC expressing MexAB, MexCD, MexEF, MexXY deleted Pseudomonas aeruginosa PA405 after 24 hrs by geometric microdilution method
# Assay type: functional
# TEST CONDITIONS: PA405, 24 h
Catalogue of compounds with associated log10 of MIC
A value of 2 here means MIC of 100 in µg/mL, since values are log10.

- SMILES RECORD: "NC[C@H]1O[C@H](O[C@H]2[C@H](OCc3ccc4ccccc4c3)[C@@H](OCc3ccc4ccccc4c3)[C@H](N)C[C@@H]2N)[C@H](N)[C@@H](OCc2ccc3ccccc3c2)[C@@H]1OCc1ccc2ccccc2c1"
  PROPERTY NAME: "log10 of MIC"
  TEST RESULT: 1.81
- SMILES RECORD: "NC[C@@H]1O[C@H](O[C@H]2[C@@H](O)[C@H](O[C@@H]3[C@@H](O)[C@H](N)C[C@H](N)[C@H]3O[C@H]3O[C@H](CN)[C@@H](O)[C@H](O)[C@H]3N)O[C@@H]2CO)[C@H](N)[C@@H](O)[C@@H]1O"
  PROPERTY NAME: "log10 of MIC"
  TEST RESULT: 0.30
- SMILES RECORD: "NC[C@H]1O[C@H](O[C@H]2[C@H](O)[C@@H](OCc3ccc4ccccc4c3)[C@H](N)C[C@@H]2N)[C@H](N)[C@@H](OCc2ccc3ccccc3c2)[C@@H]1OCc1ccc2ccccc2c1"
  PROPERTY NAME: "log10 of MIC"
  TEST RESULT: 0.60
- SMILES RECORD: "NC[C@H]1O[C@H](O[C@H]2[C@H](O)[C@@H](OCc3ccc4ccccc4c3)[C@H](N)C[C@@H]2N)[C@H](N)[C@@H](O)[C@@H]1OCc1ccc2ccccc2c1"
  PROPERTY NAME: "log10 of MIC"
  TEST RESULT: 1.51
- SMILES RECORD: "NCC[C@H](O)C(=O)N[C@@H]1C[C@H](N)[C@@H](O[C@H]2O[C@H](CN)[C@@H](O)[C@H](O)[C@H]2O)[C@H](O)[C@H]1O[C@H]1O[C@H](CO)[C@@H](O)[C@H](N)[C@H]1O"
  PROPERTY NAME: "log10 of MIC"
  TEST RESULT: -0.30

Value lookup for log10 of MIC; key = `NC[C@H]1O[C@H](O[C@H]2[C@H](O)[C@@H](O)[C@H](N)C[C@@H]2N)[C@H](N)[C@@H](O)[C@@H]1O`
2.11

Query: log10 of MIC; subject: `NC[C@H]1O[C@H](O[C@H]2[C@H](OCc3ccc4ccccc4c3)[C@@H](O)[C@H](N)C[C@@H]2N)[C@H](N)[C@@H](O)[C@@H]1OCc1ccc2ccccc2c1`
1.20

Which log10 of MIC value is on record for `NC[C@H]1O[C@H](O[C@H]2[C@H](O)[C@@H](OCc3ccccc3)[C@H](N)C[C@@H]2N)[C@H](N)[C@@H](OCc2ccccc2)[C@@H]1OCc1ccccc1` ?
1.81

Entry `NC[C@H]1O[C@H](O[C@H]2[C@H](O)[C@@H](O)[C@H](N)C[C@@H]2N)[C@H](N)[C@@H](OCc2ccc3ccccc3c2)[C@@H]1OCc1ccc2ccccc2c1` has what log10 of MIC?
0.90

What measured log10 of MIC goes with `NC[C@H]1O[C@H](O[C@H]2[C@H](O)[C@@H](OCc3ccc4ccccc4n3)[C@H](N)C[C@@H]2N)[C@H](N)[C@@H](OCc2ccc3ccccc3n2)[C@@H]1OCc1ccc2ccccc2n1` ?
1.81

Data provenance: ChEMBL document CHEMBL1156794
